tested on: RAW-Dual (murine macrophage reporter line); assay: IRF reporter (Lucia luciferase) activity fold change vs agonist alone; higher = enhanced IRF activity; settings: modulator concentration 10 µM; agonist: MPLA […]
recorded endpoint: IRF reporter
Give only the figure.

The examples below pair each entry with its known result.
| compound | IRF reporter |
| --- | --- |
| CC1=CCC(C2Nc3ccccc3-c3nnc(SCc4ccc(C)cc4)nc3O2)CC1 (stereo unspecified) | 1.22 |
| O=C(NN=Cc1c(O)ccc2ccccc12)c1[nH]ncc1I | 1.3 |
| O=S(=O)(c1ccc(-n2cccn2)cc1)N1CC(n2cc(C3CC3)nn2)C1 | 0.999 |
| Cc1[nH]c2ccccc2c1CCNCc1ccc(/C=C/C(=O)NO)cc1 | 0.509 |

IRF reporter in this record for O=C(c1ccccc1)c1ccc2n1CCC2C(=O)O (stereo unspecified) : 1.04

Record summary for CN1CCC(=C2c3ccccc3CCn3c(C=O)cnc32)CC1 : reported IRF reporter = 0.943

IRF reporter reported for this compound O=C(Nc1ccc(Br)cc1)c1cccc(S(=O)(=O)NC2CCCCC2)c1 : 1

Data point: O=c1c(O)c(-c2ccc(O)cc2O)oc2cc(O)cc(O)c12 ; IRF reporter = 1.14

response.value for Cc1ccc2nc(C)c(NC(=O)c3ccc4ccccc4n3)c(=O)n2c1 (field: IRF reporter) = 1.1

Measured IRF reporter of CCCC1CC(C(=O)NC(C(C)O)C2OC(SC)C(O)C(O)C2O)N(C)C1.Cl (stereo unspecified) : 1.32

Recorded IRF reporter (compound CSc1ccccc1NC(=O)C1CCCN(c2ccc(-n3cncn3)nn2)C1 (stereo unspecified) ): 1.43

----------
system: RAW-Dual (murine macrophage reporter line); test: IRF reporter (Lucia luciferase) activity fold change vs agonist alone; higher = enhanced IRF activity; conditions: modulator concentration 10 µM; agonist: MPLA […]
recorded endpoint: IRF reporter
# respond with the number and nothing more

A selection of reference data follows.
| molecule | reported value |
| --- | --- |
| COc1ccc(CNC(=O)c2cnc3n(c2=O)CCS3)cc1 | 1.25 |
| Cc1ccc(OCCSc2nc3ccccc3c(=O)[nH]2)cc1C | 1.19 |
| Cc1oncc1C(=O)NCCn1nc(C(F)(F)F)cc1C1CC1 | 0.935 |

Field IRF reporter (entry COc1ccc(C2CC(=O)c3c(O)cc(O)cc3O2)cc1O (centres undefined) ) reads 1.1

IRF reporter reported for this molecule Cl.Nc1ccn([C@@H]2O[C@H](CO)[C@@H](O)C2(F)F)c(=O)n1 : 1.32

The reported value for Cn1cnc2c(F)c(Nc3ccc(Br)cc3Cl)c(C(=O)NOCCO)cc21 in terms of IRF reporter is 2.42

----------
system: RAW-Dual (murine macrophage reporter line); assay: IRF reporter (Lucia luciferase) activity fold change vs agonist alone; higher = enhanced IRF activity; conditions: modulator concentration 10 µM; agonist: LPS 0.1 ug/mL
Quick rule: IRF reporter of at least 1 means label 1, below that means label 0.

Some entries whose results are on file:
| molecule | class assignment |
| --- | --- |
| Cc1cccc(NC(=O)C(=Cc2ccco2)NC(=O)c2ccccc2I)c1 | label 1 |
| COC(=O)C1=C(C)NC(C)=C(C(=O)OCCN2CCN(C(c3ccccc3)c3ccccc3)CC2)C1c1cccc([N+](=O)[O-])c1.Cl.Cl (stereo not given) | label 0 |
| O=c1ccc2ccc(OCCCCN3CCN(c4cccc5sccc45)CC3)cc2[nH]1 | label 1 |

[Q] Could you tell me if the measured IRF reporter of COc1ccc(N(CC(=O)NCCSCc2cccc(Cl)c2)S(C)(=O)=O)cc1Cl reaches 1 or more?
[A] label 1

[Q] In plain terms: is recorded IRF reporter at least 1 for COC(=O)C1=C(C)N(c2ccc(Br)cc2)C(=O)C1=Cc1ccc(O)cc1 ?
[A] label 1

[Q] Given the entry CC(COc1ccccc1)N(CCCl)Cc1ccccc1.Cl (stereo not given) , answer whether its IRF reporter meets or surpasses 1.
[A] label 0

[Q] Check this molecule for IRF reporter at or above 1: O=C(COc1ccc2ccccc2c1)Nc1cnoc1
[A] label 1

[Q] Does the reported IRF reporter for COC(=O)C1=CN(CC2CCCO2)C=C(C(=O)OC)C1c1ccccc1Cl (stereo not given) fall at or above the 1 mark?
[A] label 0

----------
test system: RAW-Dual (murine macrophage reporter line); assay: IRF reporter (Lucia luciferase) activity fold change vs agonist alone; higher = enhanced IRF activity; settings: modulator concentration 10 µM; agonist: LPS 0.1 ug/mL
Where IRF reporter equals or exceeds 1, the correct label is met; where it does not, the label is not met.

Recorded results for 5 molecules are shown here.
| molecule | class assignment |
| --- | --- |
| Cl.Cl.OCCN1CCN(CCCN2c3ccccc3Sc3ccc(C(F)(F)F)cc32)CC1 | met |
| N#CC(=Cc1cn(Cc2ccccc2Cl)c2ccccc12)c1nn(CCO)c(N)c1C#N | met |
| Cc1cc(OCC(=O)NC2CC(C)(C)NC(C)(C)C2)ccc1Br | met |
| CCOc1cc2ncc(C#N)c(Nc3ccc(F)c(Cl)c3)c2cc1NC(=O)/C=C/CN(C)C | not met |
| CN(C)C/C=C/C(=O)Nc1cc2c(Nc3ccc(F)c(Cl)c3)ncnc2cc1O[C@H]1CCOC1 | not met |

API: the following record is the query input.
[Q] Would you say Cc1cccc(C(=O)NC(Nc2ccccc2C(F)(F)F)C(Cl)(Cl)Cl)c1 (stereo not drawn) shows IRF reporter at minimum 1?
[A] met

----------
The following compounds are shown together with reported NF-kB reporter values.
tested on: RAW-Dual (murine macrophage reporter line); assay: NF-kB reporter (SEAP) activity fold change vs agonist alone; higher = enhanced NF-kB activity; conditions: modulator concentration 10 µM; agonist: CpG ODN 1826 0.5 ug/mL

Guide cases for NF-kB reporter, answers given:
| compound | NF-kB reporter |
| --- | --- |
| COc1cc2nccc(Oc3ccc(NC(=O)Nc4cc(C)on4)c(Cl)c3)c2cc1OC | 0.178 |
| Cc1ncn(CCNC(=O)Nc2ccc(OC(F)(F)F)cc2)c(=O)c1C | 1.14 |
| Cc1ccc(OCC(=O)N2CCN(c3ccc(-n4cncn4)nn3)CC2)c(C(C)(C)C)c1 | 1.11 |
| O=C(Cn1c(C(F)(F)F)nc2ccccc21)c1ccc(OC(F)F)cc1 | 0.916 |
| O=C(NC1CCOCC1)N1CCOC(c2cc(Cl)cc(Cl)c2)C1 (stereo not drawn) | 0.83 |

NF-kB reporter in this record for Oc1ccc(N=Cc2ccccc2)cc1 : 1.38

Record summary for O=C(CCCN1CCN(c2ccccn2)CC1)c1ccc(F)cc1 : reported NF-kB reporter = 0.595

Lab note: O=C(O)CCCNC(=O)c1cccc([N+](=O)[O-])c1 gave NF-kB reporter of 1.06

// recorded NF-kB reporter for COc1cc2c(cc1OC)C1C(=O)c3ccc4c(c3OC1CO2)CCC(C)(C)O4 (stereo not drawn) : 0.91

NF-kB reporter in this record for COc1cccc(-c2csc(C(C#N)=CNc3cc(Cl)ccc3OC)n2)c1 : 0.939

Documented NF-kB reporter of O=C(NCC1(O)CCc2ccccc2C1)c1cccc(C(F)(F)F)c1 (stereo not drawn) : 0.848

----------
system: RAW-Dual (murine macrophage reporter line); test: IRF reporter (Lucia luciferase) activity fold change vs agonist alone; higher = enhanced IRF activity; settings: modulator concentration 10 µM; agonist: LPS 0.1 ug/mL
Form field: IRF reporter (one value per entry).
Lab note: write the figure by itself, no unit.

Known results for molecules:
| molecule | recorded endpoint | reported value |
| --- | --- | --- |
| CN(C)CCC(c1ccc(Br)cc1)c1ccccn1.O=C(O)/C=C\C(=O)O (stereo unspecified) | IRF reporter | 1.17 |
| NC(=O)COc1ccc(Nc2nnc(-c3ccccc3)c3ccccc23)cc1 | IRF reporter | 1.19 |

The molecule listed as CC1Cc2ccccc2N1C(=O)C1CCCN1S(=O)(=O)c1ccc(Cl)cc1 (stereo unspecified) has a reported IRF reporter of 1.22

Recorded result, CC1=C(C(=O)OCC2CCCO2)C(c2ccc([N+](=O)[O-])cc2)C2=C(CC(C)(C)CC2=O)N1 (stereo unspecified) , IRF reporter: 1.04

Reported IRF reporter of O=C(COC(=O)c1ccc2ccccc2n1)c1ccc(Br)cc1 : 1.29

----------
Items are presented alongside their recorded IRF reporter.
system: RAW-Dual (murine macrophage reporter line); experiment: IRF reporter (Lucia luciferase) activity fold change vs agonist alone; higher = enhanced IRF activity; settings: modulator concentration 10 µM; agonist: LPS 0.1 ug/mL
No unit in the answer, please; the number alone is enough.

Past entries and their recorded results:
| compound | tested on | recorded endpoint | reported value |
| --- | --- | --- | --- |
| O=C(NCC(O)Cc1ccccc1)Nc1ccc(F)cc1 (stereo unspecified) | RAW-Dual (murine macrophage reporter line) | IRF reporter | 1.28 |
| C#CCC(Cc1cnc2nc(N)nc(N)c2n1)c1ccc(C(=O)N[C@@H](CCC(=O)O)C(=O)O)cc1 (stereo partly specified) | RAW-Dual (murine macrophage reporter line) | IRF reporter | 0.955 |
| COC(=O)c1cc(NC(=O)c2cc(OC)c(OC)cc2[N+](=O)[O-])cc(C(=O)OC)c1 | RAW-Dual (murine macrophage reporter line) | IRF reporter | 1.59 |
| Cc1cc(C)c(-c2csc(NC(=O)C=Cc3cccs3)n2)c(C)c1 | RAW-Dual (murine macrophage reporter line) | IRF reporter | 1.12 |
| Cc1nc2ccc(Cl)cn2c(=O)c1NC(=O)c1c(F)cccc1Cl | RAW-Dual (murine macrophage reporter line) | IRF reporter | 1.09 |
| Cc1ccc(O)c([C@H](CCN(C(C)C)C(C)C)c2ccccc2)c1.O=C(O)[C@H](O)[C@@H](O)C(=O)O | RAW-Dual (murine macrophage reporter line) | IRF reporter | 0.951 |
| Cl.Cl.Fc1ccc(C(c2ccc(F)cc2)N2CCN(C/C=C/c3ccccc3)CC2)cc1 | RAW-Dual (murine macrophage reporter line) | IRF reporter | 1.11 |
| COc1ccc(N(CC(=O)N2CCc3ccccc3C2)S(C)(=O)=O)cc1Cl | RAW-Dual (murine macrophage reporter line) | IRF reporter | 1.52 |
| COc1ccc(Nc2nc(N3CCCCC3)c3cnn(C)c3n2)cc1 | RAW-Dual (murine macrophage reporter line) | IRF reporter | 0.967 |
| CCC(O)=C(C#N)c1nc2ccccc2n1C | RAW-Dual (murine macrophage reporter line) | IRF reporter | 1.02 |

Measured IRF reporter (RAW-Dual (murine macrophage reporter line)), entry O=C(NCCCO)C(=O)Nc1ccccc1F : 1.39

Query CCC1=C(C)CN(C(=O)NCCc2ccc(S(=O)(=O)NC(=O)N[C@H]3CC[C@H](C)CC3)cc2)C1=O on RAW-Dual (murine macrophage reporter line); IRF reporter returned: 0.95

Kindly note: RAW-Dual (murine macrophage reporter line), O=C(CCN1C(=O)c2cccc([N+](=O)[O-])c2C1=O)Nc1ccc(F)cc1 , IRF reporter value reported: 0.958

Fill in: RAW-Dual (murine macrophage reporter line) IRF reporter for C=CC(=O)Nc1cccc(Nc2nc(Nc3ccc(N4CCN(C(C)=O)CC4)cc3OC)ncc2C(F)(F)F)c1 = 0.438

Result for Cl.N=c1ccn2c(n1)OC1C(O)C(CO)OC12 (stereo unspecified) , tested on RAW-Dual (murine macrophage reporter line), IRF reporter: 1.15

// compound CC(C)NC(=N)NC(=N)Nc1ccc(Cl)cc1 [Prestw-999] , assay RAW-Dual (murine macrophage reporter line), IRF reporter value: 1.18

Entry Oc1ccc2ccccc2c1SSc1c(O)ccc2ccccc12 , tested on RAW-Dual (murine macrophage reporter line), has a reported IRF reporter of 0.919

Entry CCOC(=O)C1=C(CC)NC2=C(C(=O)CCC2)C1c1ccccc1I (stereo unspecified) under RAW-Dual (murine macrophage reporter line) had IRF reporter of 1.27

Kindly note: RAW-Dual (murine macrophage reporter line), Cc1cc(C(=O)N2CCC(Oc3cccc4cccnc34)CC2)n(C)n1 , IRF reporter value reported: 1.03

# Cn1c(=O)c2c(ncn2CC(=O)O)n(C)c1=O [Prestw-1507] with RAW-Dual (murine macrophage reporter line): IRF reporter is 0.96

# value of IRF reporter, RAW-Dual (murine macrophage reporter line), item COc1cc2nccc(Oc3ccc(NC(=O)C4(C(=O)Nc5ccc(F)cc5)CC4)cc3)c2cc1OC.O=C(O)C[C@H](O)C(=O)O = 0.317
